System: OVCAR-5
Assay Info: NCI tumour cell line growth inhibition, 48 h
Active and inactive are the calls of the source. Cut-off read from the data, not from the text of the source: active = GI50 up to about 1.1 µM and inactive = higher.

# Molecule, System Tested, GI50
measured = [
    ("CN(C)/N=C(\\CCN1CCCC1)CC(c1ccccc1)c1c(O)c2ccccc2oc1=O (centres undefined)", "OVCAR-5", "> 100 µM (inactive)"),
    ("Cc1ccc(C(=O)/C(C#N)=C/Nc2c(C)n(C)n(-c3ccccc3)c2=O)cc1", "OVCAR-5", "> 100 µM (inactive)"),
    ("CCN(CC)CCOCCn1c2c(c3ccccc31)CCCC2", "OVCAR-5", "23.3 µM (inactive)"),
    ("CCCCCCCC/C=C\\CCCCCCCC(=O)NCCN(CCN)C(=O)CCCCCCC/C=C\\CCCCCCCC", "OVCAR-5", "> 100 µM (inactive)"),
]
